# TESTED_ON: androgen receptors (Rattus norvegicus, UniProt P15207)
# Construct: from tissue; host or cells: rat ventral prostate cytosol, inferred from the cited method
# Sequence (P15207 whole entry S389L): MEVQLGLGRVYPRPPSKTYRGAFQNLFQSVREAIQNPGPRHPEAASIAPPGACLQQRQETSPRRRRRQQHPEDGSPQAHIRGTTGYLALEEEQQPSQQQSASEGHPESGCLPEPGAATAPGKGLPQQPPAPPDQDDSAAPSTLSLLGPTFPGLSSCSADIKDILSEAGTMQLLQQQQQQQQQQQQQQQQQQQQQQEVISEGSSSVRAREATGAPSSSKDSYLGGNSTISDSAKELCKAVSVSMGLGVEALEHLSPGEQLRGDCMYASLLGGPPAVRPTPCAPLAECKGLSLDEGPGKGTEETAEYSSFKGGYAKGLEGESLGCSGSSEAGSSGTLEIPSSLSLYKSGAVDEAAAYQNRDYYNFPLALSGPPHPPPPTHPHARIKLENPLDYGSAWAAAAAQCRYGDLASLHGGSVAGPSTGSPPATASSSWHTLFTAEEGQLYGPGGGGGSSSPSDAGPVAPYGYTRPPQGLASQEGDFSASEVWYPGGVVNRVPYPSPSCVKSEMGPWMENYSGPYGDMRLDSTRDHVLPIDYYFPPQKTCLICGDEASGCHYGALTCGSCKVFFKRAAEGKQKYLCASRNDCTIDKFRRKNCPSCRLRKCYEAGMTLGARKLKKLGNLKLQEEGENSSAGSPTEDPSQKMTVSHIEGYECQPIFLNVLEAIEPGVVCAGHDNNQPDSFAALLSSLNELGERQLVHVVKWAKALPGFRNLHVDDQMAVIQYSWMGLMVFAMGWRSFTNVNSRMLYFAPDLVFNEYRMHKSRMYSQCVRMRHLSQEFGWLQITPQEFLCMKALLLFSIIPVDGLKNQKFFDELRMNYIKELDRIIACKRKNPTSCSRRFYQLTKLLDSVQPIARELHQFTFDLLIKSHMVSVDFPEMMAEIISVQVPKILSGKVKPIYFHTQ
# ASSAY_COMMENT: IC50 of the compounds for their effect on the androgen receptors
# Assay type: binding
# CONDITION_LABEL: summary in words of the table of Example 1
# Experimental: The IC50 corresponds to the concentration which decreases by 50% either an induced pharmacological mechanism, such as muscular contraction,or the attachment of a molecule to its membrane receptor. In order to determine the IC50 of the compounds for their effect on the androgen receptors, they were tested according to the method of Schilling and Liao ("The Prostate", 1984, 5, 581-588). The values are given in μM
OBSERVED_PROPERTY: affinity for the androgen receptor (in words)

CC(O)(C(=O)Nc1ccc(Cl)c(Cl)c1)C(F)(F)F (stereo not shown) ... good affinity
CC(O)(C(=O)Nc1ccc(C#N)c(Cl)c1)C(F)(F)F (stereo not shown) ... good affinity
CC(O)(C(=O)Nc1ccc(C#N)cc1)C(F)(F)F (stereo not shown) [G, reference compound] ... poor affinity
CC(O)(C(=O)Nc1ccc(C#N)c(C(F)(F)F)c1)c1ccccc1 (stereo not shown) ... good affinity
CC(O)(C(=O)Nc1ccc([N+](=O)[O-])c(C(F)(F)F)c1)C(F)(F)F (stereo not shown) [F, reference compound] ... poor affinity
CC(O)(C(=O)Nc1ccc(C#N)c(C#N)c1)C(F)(F)F (stereo not shown) ... good affinity
CC(O)(C(=O)Nc1ccc(C#N)c(C(F)(F)F)c1)C(F)(F)F (stereo not shown) ... good affinity

Sourced from patent US6291532A
